Assay: DUSP6 inhibitors restoring Erk phosphorylation by chemical complementation, primary imaging in DUSP6-transfected HeLa (AID 609)
Conditions: HeLa MKP-3 transfected, phospho-Erk imaging KS statistic; measured here: nuclear c-Myc green intensity z-score; at 10 µM; cells stimulated with TPA for 15 min
Recorded z-score split into classes label 0: < -0.7; label 1: ≥ -0.7 and < 0.7; label 2: ≥ 0.7

In: Hi, small favor: classify `CCCCn1c(C)cc2cc(O)ccc21` by its z-score when you get a moment.
Out: label 2

* * *

Assay: inhibitors of TNFa-induced NFkB p65 translocation, primary screen, imaging, HUVEC, MLSMR starter and 10KST1 sets (AID 438);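 note: compound added about 3h40 before a 20 min TNFalpha stimulation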
Conditions: HUVEC TNFa-induced p65 nuclear translocation; measured here: nuclei count (cytotoxicity indicator), at 2.08 µM
Binary classification by cell count, with 600 as an inclusive lower bound for Condition met; all other cases are Condition not met.

{"MOLECULE": "CC(=O)[C@H]1[C@H](C#N)C[C@H]2[C@@H]3CC=C4C[C@@H](O)CC[C@]4(C)[C@H]3CC[C@@]21C", "CLASS NAME": "Condition met"}
{"MOLECULE": "COC(=O)C1=C(C)N=C2SC(C)C(=O)N2C1c1cccc(F)c1 (configuration not stated)", "CLASS NAME": "Condition not met"}
{"MOLECULE": "COc1ccc(C=NCCC2(O)CC(C)N(C)CC2C)cc1 (configuration not stated)", "CLASS NAME": "Condition not met"}
{"MOLECULE": "O=C1CC(c2ccco2)CC(O)=C1C=Nc1cc(Cl)ccc1O (configuration not stated)", "CLASS NAME": "Condition not met"}
{"MOLECULE": "Nc1nnc(CSCc2ccc(F)cc2)s1", "CLASS NAME": "Condition not met"}
{"MOLECULE": "COC(=O)CN(c1cc(OC)ccc1OC)S(=O)(=O)c1ccc(OC)c(OC)c1", "CLASS NAME": "Condition not met"}
{"MOLECULE": "O=C(O)c1ccc(COc2c(F)c(F)c(F)c(F)c2F)o1", "CLASS NAME": "Condition not met"}
{"MOLECULE": "CC(=O)c1c(C(C)=O)c(C)n(NC(=O)c2ccncc2)c1C", "CLASS NAME": "Condition not met"}
{"MOLECULE": "Fc1ccccc1-c1nc(NCCCN2CCOCC2)c2ccccc2n1", "CLASS NAME": "Condition not met"}
{"MOLECULE": "CCCCOc1ccccc1/C=c1/sc2nc(-c3oc4ccccc4c3C)nn2c1=O", "CLASS NAME": "Condition not met"}

In: Could you verify whether the entry `O=C1N[C@@H](Cc2cnc[nH]2)C(=O)N2CCC[C@@H]12` shows cell count of no less than 600?
Out: Condition not met

In: Hi, just wondering whether `COc1cccc(OCCN2CCN(c3ncnc4c3cnn4-c3ccccc3)CC2)c1` shows cell count of 600 or higher.
Out: Condition not met

In: Hi team, for `Cc1cc(-c2ccc(F)cc2)nc2cc(C(N)=O)nn12` , is the recorded cell count at or above 600?
Out: Condition not met

In: # bool: cell count of `CCCOc1ccc(Cn2c(O)cc(=O)[nH]c2=O)cc1` >= 600
Out: Condition not met

In: Can `C=CCn1c(SCC#N)nc2c(c1=O)C(C)(C)Cc1ccccc1-2` be said to have cell count at or above 600?
Out: Condition met

In: Quick check, cell count >= 600? `CCOC(=O)CNC(=O)Nc1ccccc1C(=O)OC`
Out: Condition met

In: Say whether `O=C(O)c1cnn2c(C(F)(F)F)cc(-c3ccco3)nc12` shows cell count of 600 or more.
Out: Condition not met

In: Decide: cell count of CN1CCN2c3ccccc3Cc3ccccc3C2C1 (configuration not stated) >= 600?
Out: Condition met

In: Given the entry `CC(=O)c1c(OCC(=O)O)ccc2c(C)cc(=O)oc12` , answer whether its cell count meets or surpasses 600.
Out: Condition met

In: Assess whether reported cell count for CCOC(=O)C1CCN(c2nc3ccccc3nc2C(C#N)C(=O)OC(C)C)CC1 (configuration not stated) sits at 600 or higher.
Out: Condition not met

In: Entry CC(Sc1nc(N2CCCCC2)c2c(c1C#N)CCCC2)C(=O)O (configuration not stated) : is its cell count no less than 600?
Out: Condition met

In: Given `CC1(C)Cc2c(c(-c3ccccc3)nc3[nH][nH]c(=O)c23)CO1` , state whether its cell count is at least 600.
Out: Condition met

In: Please indicate if the recorded cell count for CC1CN(C2CCN(C(=O)c3ccccc3)CC2)CC(C)O1 (configuration not stated) meets or exceeds 600.
Out: Condition not met

In: Quick check: does `Nc1nnc(CC2=CCCCC2)s1` have cell count greater than or equal to 600?
Out: Condition not met

In: Identify whether the reported cell count of the following molecule is 600 or greater: `CCOC(=O)C(NC=O)(NC(C)(C)C)C(=O)OCC`
Out: Condition not met

In: Kindly determine if cell count recorded for Cc1[nH]nc2c1C(CCc1ccccc1)C(C#N)=C(N)O2 (configuration not stated) is above or exactly 600.
Out: Condition not met

* * *

Molecular target: Voltage-gated potassium channel subunit beta-2 (Rattus norvegicus)
Assay: KvBeta enzyme negative modulators, primary screen, biochemical, NADPH fluorescence (AID 622);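 note: slope of raw intensity against log time taken from 70 to 1610 s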
Conditions: recombinant KvBeta, 4-cyanobenzaldehyde reduction, at 10 µM, stronger effect = higher value
READOUT LABEL: fluorescence slope
Enter a number only.

{"MOLECULE": "Nc1nc(NC(=O)c2cccs2)nn1-c1ccccc1", "fluorescence slope": -0.486}
{"MOLECULE": "Cc1oc2cc(O)cc(C)c2c(=O)c1-c1cnn(-c2ccccc2)c1", "fluorescence slope": -0.509}
{"MOLECULE": "C/C(=N\\O)C1(C)N(O)C(C)(C)C(c2ccco2)=[N+]1[O-] (stereo not given)", "fluorescence slope": -0.486}
{"MOLECULE": "COc1ccc(OC)c2c(N)c(C#N)c(C(F)(F)C(F)(F)F)nc12", "fluorescence slope": -0.402}

Result for `CCCOc1ccc(Cc2nn[nH]n2)cc1` , tested on Voltage-gated potassium channel subunit beta-2 (Rattus norvegicus), fluorescence slope: -0.396

* * *

Assay: DUSP6 inhibitors restoring Erk phosphorylation by chemical complementation, primary imaging in DUSP6-transfected HeLa (AID 609)
Details: HeLa MKP-3 transfected, phospho-Erk imaging KS statistic; measured here: cell density z-score; at 10 µM; cells stimulated with TPA for 15 min
Tick true (1) if z-score is -0.4 or greater. Tick false (0) if z-score is less than -0.4.

# count of solved cases: 10
{"COMPOUND": "CCOC(=O)c1cc(C)n(Cc2cccc(OC)c2OC)c1C", "CLASS NAME": "true (1)"}
{"COMPOUND": "CC(=O)OCC(=O)[C@@]1(O)CC[C@H]2[C@@H]3CCC4=CC(=O)C=C[C@]4(C)[C@@]3(Cl)[C@@H](Cl)C[C@@]21C", "CLASS NAME": "true (1)"}
{"COMPOUND": "c1ccc2c(NCC3CCCO3)nc(-c3ccncc3)nc2c1 (stereo not given)", "CLASS NAME": "true (1)"}
{"COMPOUND": "CCOC(=O)CCC(=O)O[C@H]1[C@H](O[C@@H]2[C@@H](C)[C@H](O[C@H]3C[C@@](C)(OC)[C@@H](O)[C@H](C)O3)[C@@H](C)C(=O)O[C@H](CC)[C@@](C)(O)[C@H](O)[C@@H](C)C(=O)[C@H](C)C[C@@]2(C)O)O[C@H](C)C[C@@H]1N(C)C", "CLASS NAME": "false (0)"}
{"COMPOUND": "CCCCOc1ccc(C(=O)CCN2CCCCC2)cc1", "CLASS NAME": "true (1)"}
{"COMPOUND": "COc1ccccc1N1CCN(CCOc2c(OC)cccc2OC)CC1", "CLASS NAME": "false (0)"}
{"COMPOUND": "COC(=O)c1ccc(Cn2cnc3c(sc4nc(N5CCOCC5)c5c(c43)CCCC5)c2=O)o1", "CLASS NAME": "false (0)"}
{"COMPOUND": "Cc1nn(-c2ccccc2)c2c1C(=O)NC(=O)C(C)(C)C2", "CLASS NAME": "true (1)"}
{"COMPOUND": "N#CC1(c2ccccc2)CCC(=NO)CC1 (stereo not given)", "CLASS NAME": "true (1)"}
{"COMPOUND": "CN(C)c1nc2sc3c(c2c(=O)n1C)CC(C)(C)OC3", "CLASS NAME": "true (1)"}

In: Check the entry `CC(C)[N+](C)(CCOC(=O)C1c2ccccc2Oc2ccccc21)C(C)C` : does z-score equal or exceed -0.4?
Out: false (0)

In: Record CCCCC1CC1C(=O)Nc1ccc(OC)c(OC)c1 (stereo not given) ; criterion: z-score no lower than -0.4. Met?
Out: false (0)

In: Item `CSc1nc(N2CCCC2)c2c(c1C#N)CC(C)(C)OC2` with z-score of -0.4 or above?
Out: true (1)

In: Quick check: does `COc1c(O)ccc2cnn(-c3ccccc3C)c(=O)c12` have z-score greater than or equal to -0.4?
Out: false (0)

In: Threshold query (z-score >= -0.4) on `O=C(O)CCCCCN1C(=O)CCC1=O`
Out: true (1)

Provenance of the data: PubChem BioAssay
